Where do these numbers come from? They come from patent US11420967B2.

# Tested on: HT-29 cells
# experimentNotes: Cell-killing activity in HT-29 cells
# Format: cell-based, human
# runConditions: Homo sapiens, HT-29
pEC50: −log10 of the molar value.
measuredMetric: pEC50

structureSmiles | measuredResult
CCn1c2ccccc2c2cc(C(=O)c3cccc4ncccc34)ccc21 | < 4.00

---

# targetSystem: sheared MTs / bovine brain tubulin (Bos taurus, UniProt P81947+Q6B856)
# Construct: Bovine brain tubulin was purified, polymerized into MTs and sheared; from tissue; host or cells: bovine brain
# Sequence (Q6B856 whole entry): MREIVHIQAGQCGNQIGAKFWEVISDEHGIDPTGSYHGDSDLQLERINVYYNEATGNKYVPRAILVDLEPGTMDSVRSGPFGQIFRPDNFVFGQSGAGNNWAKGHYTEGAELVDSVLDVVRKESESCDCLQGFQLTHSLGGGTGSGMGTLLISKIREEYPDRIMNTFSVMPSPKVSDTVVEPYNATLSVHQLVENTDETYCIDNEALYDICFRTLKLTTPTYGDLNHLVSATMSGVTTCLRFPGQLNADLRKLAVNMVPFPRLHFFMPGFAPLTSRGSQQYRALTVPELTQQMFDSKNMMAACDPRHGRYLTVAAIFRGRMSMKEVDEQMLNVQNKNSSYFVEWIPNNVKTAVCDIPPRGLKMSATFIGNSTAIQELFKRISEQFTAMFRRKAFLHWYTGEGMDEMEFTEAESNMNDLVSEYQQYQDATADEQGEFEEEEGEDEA
# Sequence (P81947 whole entry): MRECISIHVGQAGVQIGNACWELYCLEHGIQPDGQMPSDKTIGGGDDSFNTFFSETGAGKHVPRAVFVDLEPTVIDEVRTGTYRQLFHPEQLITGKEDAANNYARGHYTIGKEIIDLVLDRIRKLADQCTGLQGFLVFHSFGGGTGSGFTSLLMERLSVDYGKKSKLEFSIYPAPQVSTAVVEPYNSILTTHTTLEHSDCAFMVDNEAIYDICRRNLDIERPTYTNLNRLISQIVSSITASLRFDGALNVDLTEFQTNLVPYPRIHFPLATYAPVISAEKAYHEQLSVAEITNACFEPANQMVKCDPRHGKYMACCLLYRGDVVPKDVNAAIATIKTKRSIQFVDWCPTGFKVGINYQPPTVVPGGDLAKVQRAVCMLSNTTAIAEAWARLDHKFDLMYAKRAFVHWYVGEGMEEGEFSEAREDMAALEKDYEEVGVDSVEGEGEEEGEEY
# experimentNotes: MT-tubulin partitioning (free tubulin pelleting assay, gel quantification)
# Assay type: biochemical
# runConditions: sheared MTs at 37° C., 15 min; read-out: MT-Tubulin Partitioning IC50 (μM) (mean)

structureSmiles | targetSystem | IC50
CCn1c2ccccc2c2cc(C(=O)c3ccc(C)c4ccccc34)ccc21 | sheared MTs / bovine brain tubulin (Bos taurus, UniProt P81947+Q6B856) | 2.1 µM

---

# targetSystem: cannabinoid CB1 receptor (hCB1) (Homo sapiens, UniProt P21554)
# Construct: expressed in transfected cells; host or cells: HEK293
# Sequence (P21554 whole entry): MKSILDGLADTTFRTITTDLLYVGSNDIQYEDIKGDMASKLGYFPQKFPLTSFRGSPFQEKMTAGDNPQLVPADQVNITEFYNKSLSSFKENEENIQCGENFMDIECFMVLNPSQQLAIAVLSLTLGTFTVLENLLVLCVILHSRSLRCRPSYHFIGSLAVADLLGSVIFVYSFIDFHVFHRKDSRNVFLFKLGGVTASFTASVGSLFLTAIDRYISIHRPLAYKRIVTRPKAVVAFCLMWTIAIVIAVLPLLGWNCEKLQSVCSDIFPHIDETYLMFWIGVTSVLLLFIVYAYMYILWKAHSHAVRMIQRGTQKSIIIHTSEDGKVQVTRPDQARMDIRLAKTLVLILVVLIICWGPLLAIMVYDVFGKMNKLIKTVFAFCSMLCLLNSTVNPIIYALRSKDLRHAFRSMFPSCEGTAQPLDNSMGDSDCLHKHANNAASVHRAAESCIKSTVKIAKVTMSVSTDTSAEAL
# experimentNotes: β-arrestin recruitment in hCB1-transfected HEK293 cells
# Type: cell-based
# runConditions: β-arrestin recruitment; antagonist mode; read-out: Antagonist CB1, value in parentheses (EC50)
pEC50: −log10 of the molar value.
measuredMetric: pEC50

compound | measuredMetric | measuredResult
CCn1c2ccccc2c2cc(C(=O)c3cccc4ncccc34)ccc21 [Compound 20] | pEC50 | 5.68
CCn1c2ccccc2c2cc(C(O)c3ccc(C)c4ccccc34)ccc21 (stereo not drawn) [Compound 27] | pEC50 | 6.03
CCn1c2ccccc2c2cc(C(=O)c3cccc4c3CCCN4)ccc21 [Compound 23] | pEC50 | 6.74

---

# System: HT-29 cells
# experimentNotes: Cell-killing activity in HT-29 cells
# Format: cell-based, human
# runConditions: Homo sapiens; HT-29 cells; read-out: EC50

compound | EC50 [µM]
CCn1c2ccccc2c2cc(C(O)c3cccc4ncccc34)ccc21 (racemic) [Compound 19] | 0.073

---

# System: Colo205 cells
# experimentNotes: Cell-killing activity in Colo205 cells
# runConditions: Colo205 cells
pEC50: −log10 of the molar value.
Let's look at some compounds and their measured pEC50.
measuredMetric: pEC50

compound | measuredMetric | censoringOperator | measuredResult
CCn1c2ccccc2c2cc(C(O)c3cccc4ncccc34)ccc21 (racemic) | pEC50 | = | 7.29
CCn1c2ccccc2c2cc(C(=O)c3cccc4ncccc34)ccc21 | pEC50 | < | 6.02

---

# targetSystem: purified tubulin (Bos taurus, UniProt P81947+Q6B856)
# Sequence (P81947 whole entry): as the sequence (P81947 whole entry) above
# Sequence (Q6B856 whole entry): as the sequence (Q6B856 whole entry) above
# experimentNotes: Tubulin assembly, in vitro turbidity assay
# Format: biochemical, bovine
# runConditions: tubulin 10 μM in 0.8 M glutamate with 0.4 mM GTP; 20 min at 30° C.; read-out: Tubulin Assembly IC50 (μM) (mean ± SD)
Let's look at some compounds and their measured IC50.

compound | IC50 (µM)
CCn1c2ccccc2c2cc(C(=O)N3CCCc4ccccc43)ccc21 | 4.4
CCn1c2ccccc2c2cc(C(O)c3ccc(C)c4ccccc34)ccc21 (stereo not shown) | 1.6
CCn1c2ccccc2c2cc(C(=O)c3ccc(C)c4ccccc34)ccc21 | 1.4
CCn1c2ccccc2c2cc(C(=O)c3cccc4ncccc34)ccc21 | 0.89

---

# experimentNotes: Solubility in pharmaceutical compositions for in vivo testing
# Format: physicochemical
# runConditions: aqueous with cosolvent or surfactant or cyclodextrin; in (a) 10% DMSO and 20% CRE in DPBS, (b) 5% EtOH and 10% CRE in DPBS, (c) 5% EtOH and 20% CRE in DPBS; −4° C. for 2 weeks; read-out: concentration at which found to be soluble

compound | unitsText | solubility at 2 weeks
CCn1c2ccccc2c2cc(C(O)c3cccc4ncccc34)ccc21 (racemic) | mM | 60

---

# System: PD-GBM (classical)
# experimentNotes: Cell-killing activity in patient-derived GBM cells, classical subtype (WST-1)
# Type: cell-based, human
# runConditions: Homo sapiens, 72 h, Cell ID SN243, classical; WST-1, 3 days; read-out: EC50

compound | targetSystem | unitsText | EC50
CCn1c2ccccc2c2cc(C(O)c3cccc4ncccc34)ccc21 (racemic) | PD-GBM (classical) | µM | 0.034

---

# System: PD-GBM (proneural)
# experimentNotes: Cell-killing activity in patient-derived GBM cells, proneural subtype (WST-1)
# Format: cell-based, human
# runConditions: Homo sapiens; PD-GBM (proneural); WST-1, 72 hours
pEC50: −log10 of the molar value.
Let's look at some molecules and their measured pEC50.
measuredMetric: pEC50

molecule | measuredResult
CCn1c2ccccc2c2cc(C(=O)c3ccc(C)c4ccccc34)ccc21 [Compound 8] | 6.27
CCn1c2ccccc2c2cc(C(=O)N3CCCc4ccccc43)ccc21 [Compound 25] | 6.21
CCn1c2ccccc2c2cc(C(=O)c3cccc4ncccc34)ccc21 [Compound 20] | 6.50
CCn1c2ccccc2c2cc(C(O)c3ccc(C)c4ccccc34)ccc21 (stereo not shown) [Compound 27] | 6.20

---

Let's look at some compounds and their measured Antagonist efficacy (% activation) CB2.
# targetSystem: cannabinoid CB2 receptor (hCB2) (Homo sapiens)
# Construct: expressed in transfected cells; host or cells: HEK293
# Sequence (P34972 whole entry): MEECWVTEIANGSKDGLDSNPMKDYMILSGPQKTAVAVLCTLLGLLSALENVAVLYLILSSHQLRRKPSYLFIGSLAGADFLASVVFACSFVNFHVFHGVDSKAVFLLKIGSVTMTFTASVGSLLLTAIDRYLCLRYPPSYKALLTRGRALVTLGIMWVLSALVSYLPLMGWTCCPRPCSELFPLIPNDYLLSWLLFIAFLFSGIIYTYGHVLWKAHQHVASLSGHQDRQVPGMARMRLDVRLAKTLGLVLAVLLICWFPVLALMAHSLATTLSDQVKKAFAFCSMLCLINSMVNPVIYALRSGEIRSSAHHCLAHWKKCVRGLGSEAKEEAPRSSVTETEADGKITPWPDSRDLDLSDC
# experimentNotes: β-arrestin recruitment in hCB2-transfected HEK293 cells
# Format: cell-based
# runConditions: β-arrestin recruitment
measuredMetric: Antagonist efficacy (% activation) CB2

compound | targetSystem | measuredMetric | unitsText | measuredResult
CCn1c2ccccc2c2cc(C(=O)c3cccc4ncccc34)ccc21 [Compound 20] | cannabinoid CB2 receptor (hCB2) (Homo sapiens) | Antagonist efficacy (% activation) CB2 | % activation | 94
CCCCCCC(C)(C)c1ccc([C@@H]2C[C@H](O)CC[C@H]2CCCO)c(O)c1 [positive control, CP55940, reference compound] | cannabinoid CB2 receptor (hCB2) (Homo sapiens) | Antagonist efficacy (% activation) CB2 | % activation | 92
CCn1c2ccccc2c2cc(C(=O)c3cccc4c3CCCN4)ccc21 [Compound 23] | cannabinoid CB2 receptor (hCB2) (Homo sapiens) | Antagonist efficacy (% activation) CB2 | % activation | 20
CCn1c2ccccc2c2cc(C(O)c3ccc(C)c4ccccc34)ccc21 (stereo not shown) [Compound 27] | cannabinoid CB2 receptor (hCB2) (Homo sapiens) | Antagonist efficacy (% activation) CB2 | % activation | 44

---

# targetSystem: cannabinoid CB1 receptor (hCB1) (Homo sapiens, UniProt P21554)
# Construct: expressed in transfected cells; host or cells: HEK293
# experimentNotes: β-arrestin recruitment in hCB1-transfected HEK293 cells
# Format: cell-based
# runConditions: β-arrestin recruitment

compound | Antagonist efficacy (% activation) CB1
CCn1c2ccccc2c2cc(C(=O)c3cccc4c3CCCN4)ccc21 [Compound 23] | 16 % activation
CCn1c2ccccc2c2cc(C(O)c3ccc(C)c4ccccc34)ccc21 (centres unmarked) [Compound 27] | 47 % activation
CCn1c2ccccc2c2cc(C(=O)c3ccc(C)c4ccccc34)ccc21 [Compound 8] | 51 % activation
CCCCCCC(C)(C)c1ccc([C@@H]2C[C@H](O)CC[C@H]2CCCO)c(O)c1 [positive control, CP55940, reference compound] | 97 % activation
CCn1c2ccccc2c2cc(C(=O)c3cccc4ncccc34)ccc21 [Compound 20] | 93 % activation

---

Let's look at some compounds and their measured EC50.
# targetSystem: cannabinoid CB2 receptor (hCB2) (Homo sapiens)
# Construct: expressed in transfected cells; host or cells: HEK293
# experimentNotes: β-arrestin recruitment in hCB2-transfected HEK293 cells
# Format: cell-based
# runConditions: β-arrestin recruitment; antagonist mode; read-out: Antagonist CB2, value in parentheses (EC50)
measuredMetric: EC50 (nM)

compound | measuredResult
CCn1c2ccccc2c2cc(C(O)c3ccc(C)c4ccccc34)ccc21 (centres unmarked) [Compound 27] | 323
CCn1c2ccccc2c2cc(C(=O)c3cccc4ncccc34)ccc21 [Compound 20] | 2220

---

# targetSystem: colchicine site of tubulin (purified tubulin) (Bos taurus, UniProt P81947+Q6B856)
# Construct: from tissue; host or cells: native tubulin
# Sequence (Q6B856 whole entry): as the sequence (Q6B856 whole entry) above
# Sequence (P81947 whole entry): as the sequence (P81947 whole entry) above
# experimentNotes: [3H]colchicine binding to purified tubulin
# Set-up: species or system bovine
# runConditions: read-out: Colchicine Binding % inhibition (mean ± SD) at 5 μM
Let's look at some molecules and their measured inhibition at 5 µM.

molecule | unitsText | inhibition at 5 µM
CCn1c2ccccc2c2cc(C(=O)c3cccc4c3CCCN4)ccc21 | % | 4
CCn1c2ccccc2c2cc(C(=O)c3ccc(C)c4ccccc34)ccc21 | % | 53
CCn1c2ccccc2c2cc(C(=O)c3cccc4ncccc34)ccc21 | % | 91
CCn1c2ccccc2c2cc(C(O)c3ccc(C)c4ccccc34)ccc21 (centres unmarked) | % | 70
CCn1c2ccccc2c2cc(C(=O)N3CCCc4ccccc43)ccc21 | % | 41

---

# experimentNotes: Solubility in pharmaceutical compositions for in vivo testing
# Format: physicochemical
# runConditions: -4 °C, aqueous with cosolvent or surfactant or cyclodextrin

structureSmiles | solubility at 2 weeks / mM
CCn1c2ccccc2c2cc(C(=O)c3cccc4ncccc34)ccc21 | 45
